The values you see were collected from patent US20240034796A1.

biological target: T1, human PD-1 protein (human, UniProt Q15116 25-167, limits assumed); assay: SPR, binding kinetics to human PD-1
T1 construct: also called human PD-1 antigen
T1 sequence (Q15116 25-167 limits assumed): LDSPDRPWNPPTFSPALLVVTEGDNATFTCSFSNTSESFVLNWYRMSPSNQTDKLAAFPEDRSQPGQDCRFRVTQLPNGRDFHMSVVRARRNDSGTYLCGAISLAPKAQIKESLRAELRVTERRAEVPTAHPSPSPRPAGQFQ
property.measured: koff (s⁻¹)
Numbers only here, please. The scale is s⁻¹.

Ask: koff lookup needed for AHF16561 (antibody, V domains shown) VH: QVQLVQSGAEVKKPGASVKVSCKASGYTFTGYWMHWVRQAPGQGLEWIGMIHPNSDTTIYNEKFKNRVTMTRDTSISTAYMELSRLRSDDTAVYYCAGTDQAAWAGFWGQGTTVTVSS VL: DIVMTQTPLSLSVTPGQPASISCRSSQNIVRSQGDTYLEWYLQKPGQSPQLLIYKVSKRFSGVPDRFSGSGSGTDFTLKISRVEAEDVGVYYCFQGSHVPWTFGGGTKVEIK , thanks.
Reply: 5.53e-05

Ask: koff lookup needed for AHF16564 (antibody, V domains shown) VH: QVQLVQSGAEVKKPGASVKVSCKASGYTFTGYWMHWVRQAPGQGLEWIGMIHPNSDTTTYNEKFKNRVTMTRDTSISTAYMELSRLRSDDTAVYYCAGTDQEAWAGFWGQGTTVTVSS VL: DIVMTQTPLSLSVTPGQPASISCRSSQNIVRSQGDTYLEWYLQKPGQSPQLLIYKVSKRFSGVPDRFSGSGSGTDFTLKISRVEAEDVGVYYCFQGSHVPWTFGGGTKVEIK , thanks.
Reply: 3.68e-05

Ask: koff lookup needed for AHF16556 (antibody, V domains shown) VH: QVQLVQSGAEVKKPGASVKVSCKASGYTFTGYWMHWVRQAPGQGLEWIGMIHPNSDTTVYNWKFKNRVTMTRDTSISTAYMELSRLRSDDTAVYYCAGTDQEAWAAFWGQGTTVTVSS VL: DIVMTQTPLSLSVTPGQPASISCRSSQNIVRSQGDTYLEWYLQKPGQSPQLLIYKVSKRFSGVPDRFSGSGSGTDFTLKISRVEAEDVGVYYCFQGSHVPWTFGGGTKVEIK , thanks.
Reply: 6.31e-05
